Reference for the values: ChEMBL document CHEMBL1130513

Can you tell me inhibition at 0.3 µg/mL for the items I'm about to list?
# Species on record: Rattus norvegicus
# experimentalProtocol: In vitro inhibitory effect on D-Galactosamine induced cytotoxicity in primary cultured rat hepatocytes at 0.3 ug/mL
# Assay type: functional
# condition: Hepatocyte
The answer should read as a number with its unit following.

Task item: Item C[C@H]1O[C@@H](O[C@H]2CC[C@@]3(C)C(CC[C@]4(C)C3C(=O)C=C3C5CC(C)(C)CC[C@]5(CO)[C@@H](O)C[C@]34C)[C@]2(C)CO)[C@H](O)[C@@H](O[C@@H]2O[C@H](CO)[C@@H](O)[C@H](O)[C@H]2O)[C@H]1O (some centres undefined) has what recorded inhibition at 0.3 µg/mL?
Reply: 5.5%

Task item: Next record, please: CO[C@@H]1C=C2C3CC(C)(C)CC[C@]3(CO)[C@H](O)C[C@@]2(C)[C@]2(C)CCC3[C@](C)(CCC(O[C@@H]4O[C@H](C)[C@H](O)[C@H](O[C@@H]5O[C@H](CO)[C@@H](O)[C@H](O)[C@H]5O)[C@H]4O)[C@@]3(C)CO)C12 (some centres undefined)
Reply: 3.6%

Task item: Next record, please: C[C@H]1O[C@@H](OC2CC[C@@]3(C)C(CC[C@]4(C)C3C=C[C@]35OC[C@@]6(CCC(C)(C)CC63)[C@@H](O)C[C@]54C)C2(C)C)[C@H](O)[C@@H](O[C@@H]2O[C@H](CO)[C@@H](O)[C@H](O)[C@H]2O)[C@H]1O (some centres undefined)
Reply: -12%

Task item: Next record, please: C[C@@H]1O[C@@H](O[C@H]2[C@@H](O)[C@@H](CO[C@@H]3O[C@H](CO)[C@@H](O)[C@H](O)[C@H]3O)O[C@@H](OC3CC[C@@]4(C)C(CC[C@]5(C)C4C=CC4=C6CC(C)(C)CC[C@]6(CO)[C@H](O)C[C@]45C)[C@]3(C)CO)[C@@H]2O)[C@H](O)[C@H](O)[C@H]1O (some centres undefined) [BUPLEUROSIDE X]
Reply: 2.9%

Task item: Next record, please: C[C@@H]1O[C@@H](O[C@@H]2[C@H](O)[C@@H](O)[C@H](OC3CC[C@@]4(C)C(CC[C@]5(C)[C@@H]4[C@H](O)C=C4C6CC(C)(C)CC[C@]6(CO)[C@@H](O)C[C@]45C)C3(C)C)O[C@@H]2CO[C@@H]2O[C@H](CO)[C@@H](O)[C@H](O)[C@H]2O)[C@H](O)[C@H](O)[C@H]1O (some centres undefined)
Reply: -2.3%

Task item: Next record, please: C[C@@H]1O[C@@H](O[C@H]2[C@@H](O)[C@@H](CO[C@@H]3O[C@H](CO)[C@@H](O)[C@H](O)[C@H]3O)O[C@@H](OC3CC[C@@]4(C)C(CC[C@]5(C)C4C=CC4=C6C[C@@](C)(CO)CC[C@]6(CO)[C@H](O)C[C@]45C)[C@]3(C)CO)[C@@H]2O)[C@H](O)[C@H](O)[C@H]1O (some centres undefined) [BUPLEUROSIDE XII]
Reply: 0.1%

Task item: Next record, please: C[C@@H]1O[C@@H](O[C@@H]2[C@H](O)[C@@H](O)[C@H](O[C@H]3CC[C@@]4(C)C(CC[C@]5(C)C4CC=C4C6CC(C)(C)CC[C@]6(CO)CC[C@]45C)C3(C)C)O[C@@H]2CO[C@@H]2O[C@H](CO)[C@@H](O)[C@H](O)[C@H]2O)[C@H](O)[C@H](O)[C@H]1O (some centres undefined) [BUPLEUROSIDE XI]
Reply: -0.4%

Task item: Next record, please: C[C@H]1O[C@@H](OC2CC[C@@]3(C)C(CC[C@]4(C)C3C=CC3=C5CC(C)(C)CC[C@]5(CO)[C@H](O)C[C@]34C)[C@]2(C)CO)[C@H](O)[C@@H](O[C@@H]2O[C@H](CO)[C@@H](O)[C@H](O)[C@H]2O)[C@H]1O (some centres undefined)
Reply: 2.7%

Task item: Next record, please: C[C@H]1O[C@@H](O[C@H]2CC[C@@]3(C)C(CC[C@]4(C)C3[C@H](O)C=C3C5CC(C)(C)CC[C@]5(CO)[C@@H](O)C[C@]34C)[C@]2(C)CO)[C@H](O)[C@@H](O[C@@H]2O[C@H](CO)[C@@H](O)[C@H](O)[C@H]2O)[C@H]1O (some centres undefined)
Reply: 6.8%

Task item: Next record, please: C[C@H]1O[C@@H](O[C@H]2CC[C@@]3(C)C(CC[C@]4(C)C3C=C[C@]35OC[C@@]6(CCC(C)(C)CC63)[C@@H](O)C[C@]54C)[C@]2(C)CO)[C@H](O)[C@@H](O[C@@H]2O[C@H](CO)[C@@H](O)[C@H](O)[C@H]2O[C@@H]2O[C@H](CO)[C@@H](O)[C@H](O)[C@H]2O)[C@H]1O (some centres undefined) [BUPLEUROSIDE I]
Reply: -5.4%

Task item: Next record, please: C[C@@H]1O[C@@H](O[C@@H]2[C@H](O)[C@@H](O)[C@H](O[C@H]3CC[C@@]4(C)C(CC[C@]5(C)C4C(=O)C=C4C6CC(C)(C)CC[C@]6(CO)[C@@H](O)C[C@]45C)C3(C)C)O[C@@H]2CO[C@@H]2O[C@H](CO)[C@@H](O)[C@H](O)[C@H]2O)[C@H](O)[C@H](O)[C@H]1O (some centres undefined) [BUPLEUROSIDE VII]
Reply: -0.6%

Task item: Next record, please: CO[C@@H]1C=C2C3CC(C)(C)CC[C@]3(CO)[C@H](O)C[C@@]2(C)[C@]2(C)CCC3[C@](C)(CC[C@H](O[C@@H]4O[C@H](C)[C@H](O)[C@H](O[C@@H]5O[C@H](CO)[C@@H](O)[C@H](O)[C@H]5O[C@@H]5O[C@H](CO)[C@@H](O)[C@H](O)[C@H]5O)[C@H]4O)[C@@]3(C)CO)C12 (some centres undefined)
Reply: 1.7%

Task item: Next record, please: CO[C@@H]1C=C2C3CC(C)(C)CC[C@]3(CO)[C@@H](O)C[C@@]2(C)[C@]2(C)CCC3[C@](C)(CCC(O[C@@H]4O[C@H](CO[C@@H]5O[C@H](CO)[C@@H](O)[C@H](O)[C@H]5O)[C@H](O[C@@H]5O[C@@H](C)[C@H](O)[C@@H](O)[C@H]5O)[C@H](O)[C@H]4O)[C@@]3(C)CO)C12 (some centres undefined)
Reply: 1.5%

Task item: Next record, please: C[C@H]1O[C@@H](O[C@H]2CC[C@@]3(C)C(CC[C@]4(C)C3C=C[C@]35OC[C@@]6(CCC(C)(C)CC63)[C@@H](O)C[C@]54C)[C@]2(C)CO)[C@H](O)[C@@H](O[C@@H]2O[C@H](CO)[C@@H](O)[C@H](O)[C@H]2O)[C@H]1O (some centres undefined)
Reply: -3.6%
